# system_name: 11βHSD1 (Homo sapiens, UniProt P28845)
# Construct: made in house; host or cells: S. cerevisiae yeast
# Sequence (P28845 whole entry): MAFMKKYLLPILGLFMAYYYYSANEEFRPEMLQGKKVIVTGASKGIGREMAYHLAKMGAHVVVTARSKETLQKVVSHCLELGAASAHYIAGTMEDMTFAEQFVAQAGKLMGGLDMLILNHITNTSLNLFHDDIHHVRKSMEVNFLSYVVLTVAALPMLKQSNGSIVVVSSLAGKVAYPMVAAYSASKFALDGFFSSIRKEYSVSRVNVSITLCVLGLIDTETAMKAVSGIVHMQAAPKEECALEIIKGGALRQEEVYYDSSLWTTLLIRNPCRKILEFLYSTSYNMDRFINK
# test_method_notes: 11βHSD1 Scintillation Proximity Assay (SPA), 384-well format
# Format: biochemical
# details: recombinant 11βHSD1 produced in S. cerevisiae; 3H-cortisone and NADPH; cortisol formed measured by SPA
measure_name: IC50

compound="C[Si](C)(C)CCS(=O)(=O)N1CCN(c2ccc(N3CCN(C(=O)NC4C5CC6CC4CC(O)(C6)C5)c4ccccc43)nc2)CC1 (centres unmarked)" result="10 nM"
compound=C[Si]1(c2ccccc2)CCN(c2ccc(N3CCN(C(=O)N[C@H]4C5CC6CC4C[C@@](C(N)=O)(C6)C5)c4ccccc43)nc2)CC1 result="25 nM"
compound=NC(=O)[C@]12CC3CC(C1)[C@H](NC(=O)N1CCN(c4ccc(N5CCC(N6CCS(=O)(=O)CC6)CC5)cn4)c4ccccc41)C(C3)C2 result="4 nM"
compound="NC(=O)[C@]12CC3CC(C1)[C@H](NC(=O)N1CCN(c4ccc(N5CCC6(CC5)CC6C(=O)O)cn4)c4ccccc41)C(C3)C2 (some centres unmarked)" result="6 nM"
compound="NC(=O)C12CC3CC(C1)C(NC(=O)N1CCN(c4ccc(N5CCC(N6CCC[C@H]6CO)CC5)cn4)c4ccccc41)C(C3)C2 (stereo in doubt)" result="3 nM"
compound=CC(C)(C)ON=C1CCN(c2ccc(N3CCN(C(=O)N[C@H]4C5CC6CC4C[C@@](O)(C6)C5)c4ccccc43)nc2)CC1 result="23 nM"
compound=NC(=O)[C@]12CC3CC(C1)[C@H](NC(=O)N1CCN(c4ccc(N5CCC(N6CC[C@@H](O)C6)CC5)cn4)c4ccccc41)C(C3)C2 result="2 nM"
compound="C[Si](C)(C)CN1CCN(c2ccc(N3CCN(C(=O)NC4C5CC6CC4CC(O)(C6)C5)c4ccccc43)nc2)CC1 (centres unmarked)" result="7 nM"

====

Reported values of pIC50 for individual entries
# system_name: UniProtKB P28845
# test_method_notes: 11βHSD1 Scintillation Proximity Assay (SPA), 384-well format
# details: recombinant 11βHSD1 produced in S. cerevisiae; 3H-cortisone and NADPH; cortisol formed measured by SPA
pIC50: −log10 of the molar value.
measure_name: pIC50

molecule="NC(=O)C12CC3CC(C1)C(NC(=O)N1CCN(c4ccc(N5CCC(N6CCC(F)(F)C6)CC5)cn4)c4ccccc41)C(C3)C2 (stereo not drawn)" system_name="UniProtKB P28845" number=8.70
molecule=Cl.NC(=O)[C@]12CC3CC(C1)[C@H](NC(=O)N1CCN(c4ccc(N5CCC6(CC5)CC6(F)F)cn4)c4ccccc41)C(C3)C2 system_name="UniProtKB P28845" number=8.52
molecule="NC(=O)[C@]12CC3CC(C1)[C@H](NC(=O)N1CCN(c4ccc(N5CCN(CC6CC6(F)F)CC5)cn4)c4ccccc41)C(C3)C2 (stereo partly drawn)" system_name="UniProtKB P28845" number=8.52
molecule="C[Si]1(C)CCN(c2ccc(N3CCN(C(=O)NC4C5CC6CC4CC(C(N)=O)(C6)C5)c4ccccc43)nc2)CC1 (stereo not drawn)" system_name="UniProtKB P28845" number=7.92
molecule="NC(=O)C12CC3CC(C1)C(NC(=O)N1CCN(c4ccc(N5CCC(N6CC[C@H](O)C6)CC5)cn4)c4ccccc41)C(C3)C2 (stereo in doubt)" system_name="UniProtKB P28845" number=8.22
molecule="NC(=O)C12CC3CC(C1)C(NC(=O)N1CCN(c4ccc(N5CCC(N6CCC[C@@H]6CO)CC5)cn4)c4ccccc41)C(C3)C2 (stereo in doubt)" system_name="UniProtKB P28845" number=8.40

====

Reported values of melting point for individual entries
measure_name: melting point

compound=NC(=O)[C@]12CC3CC(C1)[C@H](NC(=O)N1CCN(c4ccc(N5CCC(N6CCS(=O)(=O)CC6)CC5)cn4)c4ccccc41)C(C3)C2 measure_name="melting point" result="160 to 200 °C"
compound="C[Si](C)(C)CCS(=O)(=O)N1CCN(c2ccc(N3CCN(C(=O)NC4C5CC6CC4CC(O)(C6)C5)c4ccccc43)nc2)CC1 (stereo not shown)" measure_name="melting point" result="107 to 120 °C"
compound="NC(=O)[C@]12CC3CC(C1)[C@H](NC(=O)N1CCN(c4ccc(N5CCC6(CC5)CC6C(=O)O)cn4)c4ccccc41)C(C3)C2 (stereo partly shown)" measure_name="melting point" result="145 to 160 °C"
compound="NC(=O)[C@]12CC3CC(C1)[C@H](NC(=O)N1CCN(c4ccc(N5CCN(CC6CC6(F)F)CC5)cn4)c4ccccc41)C(C3)C2 (stereo partly shown)" measure_name="melting point" result="206 °C"

====

Reported values of melting point for individual entries
Where a name gives a salt, the structure may show the parent alone.
measure_name: melting point

compound="CC(C)(C)ON=C1CCN(c2ccc(N3CCN(C(=O)N[C@H]4C5CC6CC4C[C@@](O)(C6)C5)c4ccccc43)nc2)CC1 [Compound 2]" result="110 to 113 °C"
compound="C[Si]1(C)CCN(c2ccc(N3CCN(C(=O)NC4C5CC6CC4CC(C(N)=O)(C6)C5)c4ccccc43)nc2)CC1 (stereo not drawn) [Compound 14]" result="213 to 216 °C"
compound="NC(=O)[C@]12CC3CC(C1)[C@H](NC(=O)N1CCN(c4ccc(N5CCC(N6CC[C@@H](O)C6)CC5)cn4)c4ccccc41)C(C3)C2 (as salt: HCl) [Compound 9]" result="191 °C"
compound="NC(=O)C12CC3CC(C1)C(NC(=O)N1CCN(c4ccc(N5CCC(N6CCC(F)(F)C6)CC5)cn4)c4ccccc41)C(C3)C2 (stereo not drawn) (as salt: HCl) [Compound 10]" result="196 °C"
compound="Cl.NC(=O)[C@]12CC3CC(C1)[C@H](NC(=O)N1CCN(c4ccc(N5CCC6(CC5)CC6(F)F)cn4)c4ccccc41)C(C3)C2 [Compound 11]" result="134 to 170 °C"
compound="C[Si]1(c2ccccc2)CCN(c2ccc(N3CCN(C(=O)N[C@H]4C5CC6CC4C[C@@](C(N)=O)(C6)C5)c4ccccc43)nc2)CC1 [Compound 13]" result="106 to 108 °C"
